The origin of these recorded values is ChEMBL document CHEMBL1131488.

Experiment: t1/2, plasma elimination half life, the time taken for the plasma concentrations to fall by one half, once distribution is complete at a dose of 50 mg/kg
Assay type: ADME, organism-based
Set-up: dose 50 mg/kg
endpointLabel: half-life (min)
Could you give me the number in min? Just the number is fine.

# input For the compound shown here, CC(=O)N[C@H]1[C@H]([C@H](O)[C@H](O)CO)OC(C(=O)O)=C[C@@H]1NC(=N)N , give the reported half-life.
# output 9.6

# input Lookup CCCN(C)C(=O)[C@@H]1OC(C(=O)O)=C[C@H](NC(=N)N)[C@H]1NC(C)=O
# output 12.6

# input Query CCCN(CCC)C(=O)[C@@H]1OC(C(=O)O)=C[C@H](N)[C@H]1NC(C)=O next
# output 21

----------
clearance overview
Assay: Clp, plasma clearance at a dose of 50 mg/kg
Format: ADME, organism-based
Design: dose 50 mg/kg
Conditions: read-out: Clp
// note: answer is a bare numeric in L/h/kg

Completed entries (count: 2):
CCCN(C)C(=O)[C@@H]1OC(C(=O)O)=C[C@H](NC(=N)N)[C@H]1NC(C)=O 1.07
CC(=O)N[C@H]1[C@H]([C@H](O)[C@H](O)CO)OC(C(=O)O)=C[C@@H]1NC(=N)N 1.49

Here's the next entry for you.
# input Query: clearance; subject: CCCN(CCC)C(=O)[C@@H]1OC(C(=O)O)=C[C@H](N)[C@H]1NC(C)=O
# output 0.75

----------
Experiment: t1/2, plasma elimination half life, the time taken for the plasma concentrations to fall by one half, once distribution is complete at a dose of 10 mg/kg
Assay type: ADME, organism-based
Set-up: dose 10 mg/kg
endpointLabel: half-life (min)
Just the number in min, nothing appended.

Some molecules with known half-life results, for comparison:
CCCCCCCCCN(CCC)C(=O)[C@@H]1OC(C(=O)O)=C[C@H](N)[C@H]1NC(C)=O 52.2
CCCN(CCC)C(=O)[C@@H]1OC(C(=O)O)=C[C@H](NC(=N)N)[C@H]1NC(C)=O 22.2

# input What measured half-life goes with CCCCCCCCCN(CCC)C(=O)[C@@H]1OC(C(=O)O)=C[C@H](N=C(N)N)[C@H]1NC(C)=O ?
# output 55.2

----------
As a worked illustration, we turn to IC50 data collected for Neuraminidase (Influenza A virus (A/Puerto Rico/8/1934(H1N1)), UniProt P03468).
Kindly provide the numeric value in nM only, without the unit symbol.

compound	unitSpec	IC50
CC(=O)N[C@@H]1[C@@H](N)C=C(C(=O)O)O[C@H]1C(=O)N1C(C)CCN1C (some centres not stated)	nM	52

# input Data request, read-out IC50, for CC(=O)N[C@@H]1[C@@H](N)C=C(C(=O)O)O[C@H]1C(=O)N(CCN=[N+]=[N-])CCc1ccccc1
# output 9

----------
Biological target: Neuraminidase (Influenza B virus (strain B/Lee/1940), UniProt P03474)
Sequence (P03474 whole entry): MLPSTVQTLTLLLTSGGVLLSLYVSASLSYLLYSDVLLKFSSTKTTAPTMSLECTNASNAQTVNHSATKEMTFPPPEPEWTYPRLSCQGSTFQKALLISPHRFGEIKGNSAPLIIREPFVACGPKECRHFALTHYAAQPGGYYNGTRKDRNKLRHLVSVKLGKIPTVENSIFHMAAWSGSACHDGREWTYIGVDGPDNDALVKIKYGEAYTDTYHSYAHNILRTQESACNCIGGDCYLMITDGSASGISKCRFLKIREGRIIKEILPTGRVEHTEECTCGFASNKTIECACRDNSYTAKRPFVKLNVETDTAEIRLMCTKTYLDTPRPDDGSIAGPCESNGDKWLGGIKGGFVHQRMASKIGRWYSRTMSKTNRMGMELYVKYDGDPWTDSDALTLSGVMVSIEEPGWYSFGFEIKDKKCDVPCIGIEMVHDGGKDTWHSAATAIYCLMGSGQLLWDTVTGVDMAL
endpointLabel: IC50 (µM)
Dear colleague, please return just the value in µM, with no unit written.

molecule	unitSpec	IC50
CC(=O)N[C@@H]1[C@@H](N)C=C(C(=O)O)O[C@H]1C(=O)N1C(C)CCN1C (some centres not stated)	µM	20

Please turn your attention to the following entry.
# input Endpoint output: IC50 of CC(=O)N[C@@H]1[C@@H](N)C=C(C(=O)O)O[C@H]1C(=O)N(CCN=[N+]=[N-])CCc1ccccc1 . Value?
# output 28
